// provenance: ChEMBL document CHEMBL4765464

- test_protocol: Oral bioavailability in rat at 15 mg/kg
- Format: ADME, organism-based
- details: in vivo
recorded_metric: bioavailability (%)
// return numeric value only (unit: %, not printed)

Inquiry: Could you share which bioavailability value was measured for COc1cnc(O[C@@H]2C[C@H]3C(=O)N[C@]4(C(=O)NS(=O)(=O)C5CC5)C[C@H]4/C=C\CC[C@@H](C)C[C@@H](C)[C@H](NC(=O)OC(C)(C)C(F)(F)F)C(=O)N3C2)c2ccccc12 ?
Reply text: 15

----------
- test_protocol: Metabolic stability in human liver microsomes assessed as half-life incubated for 5 to 45 mins in presence of NADPH by LC-MS analysis
- Type: ADME, Microsome
- details: time 5-45 min
recorded_metric: half-life (min)
Entry rule: numbers only, all in min.

Inquiry: Entry [2H]C([2H])([2H])Oc1cnc(O[C@@H]2C[C@H]3C(=O)N[C@]4(C(=O)NS(=O)(=O)C5(C)CC5)C[C@H]4/C=C\CC[C@@H](C)C[C@@H](C)[C@H](NC(=O)OC(C)(C)C(F)(F)F)C(=O)N3C2)c2ccccc12 has what half-life?
Reply text: 18

Inquiry: Form field: reported half-life of COc1cnc(O[C@@H]2C[C@H]3C(=O)N[C@]4(C(=O)NS(=O)(=O)C5(C)CC5)C[C@H]4/C=C\CC[C@@H](C)C[C@@H](C)[C@H](NC(=O)OC(C)(C)C(F)(F)F)C(=O)N3C2)c2ccccc12
Reply text: 15

Inquiry: Given CC[C@@H]1C[C@H](C)CC/C=C\[C@@H]2C[C@@]2(C(=O)NS(=O)(=O)C2(C)CC2)NC(=O)[C@@H]2C[C@@H](Oc3nccc4cc(O)c(F)cc34)CN2C(=O)[C@H]1NC(=O)OC(C)(C)C(F)(F)F , state its recorded half-life.
Reply text: 37

----------
Each entry below carries its reported clearance.
- test_protocol: Clearance in rat at 1 mg/kg, iv
- Assay type: ADME, organism-based
- details: in vivo
All answers are understood in mL/min/kg, so give the number only.

The examples below pair each entry with its known result.
>  <smiles_data>
CC[C@@H]1C[C@H](C)CC/C=C\[C@@H]2C[C@@]2(C(=O)NS(=O)(=O)C2(C)CC2)NC(=O)[C@@H]2C[C@@H](Oc3ncc(OC)c4ccc(F)cc34)CN2C(=O)[C@H]1NC(=O)OC(C)(C)C(F)(F)F

>  <readout_units>
mL/min/kg

>  <readout_value>
1.2

$$$$
>  <smiles_data>
CC[C@@H]1C[C@H](C)CC/C=C\[C@@H]2C[C@@]2(C(=O)NS(=O)(=O)C2CC2)NC(=O)[C@@H]2C[C@@H](Oc3ncc(OC)c4ccccc34)CN2C(=O)[C@H]1NC(=O)OC(C)(C)C(F)(F)F

>  <readout_units>
mL/min/kg

>  <readout_value>
5.73

$$$$
>  <smiles_data>
COc1cnc(O[C@@H]2C[C@H]3C(=O)N[C@]4(C(=O)NS(=O)(=O)C5(C)CC5)C[C@H]4/C=C\CC[C@@H](C)C[C@@H](C)[C@H](NC(=O)OC(C)(C)C(F)(F)F)C(=O)N3C2)c2ccccc12

>  <readout_units>
mL/min/kg

>  <readout_value>
1.7

$$$$
>  <smiles_data>
CC[C@@H]1C[C@H](C)CC/C=C\[C@@H]2C[C@@]2(C(=O)NS(=O)(=O)C2(C)CC2)NC(=O)[C@@H]2C[C@@H](Oc3ncc(OC)c4ccccc34)CN2C(=O)[C@H]1NC(=O)OC(C)(C)C(F)(F)F

>  <readout_units>
mL/min/kg

>  <readout_value>
1.7

$$$$

Would you kindly look at the next entry?
Inquiry: Looking for the measured clearance of CC[C@@H]1C[C@H](C)CC/C=C\[C@@H]2C[C@@]2(C(=O)NS(=O)(=O)C2(C)CC2)NC(=O)[C@@H]2C[C@@H](Oc3nccc4cc(OC)c(F)cc34)CN2C(=O)[C@H]1NC(=O)OC(C)(C)C(F)(F)F , can you help?
Reply text: 0.3
